Test: Drug absorption in intestine (unknown origin) assessed as tissue-bound transfer
Assay type: ADME, tissue-based
Each entry below carries its reported log%Abs.
Note: the reply should be a number with no unit written.

{"compound": "CCCCCCOC(N)=O", "endpoint-result": -0.05}
{"compound": "COC(N)=O [METHYL CARBAMATE]", "endpoint-result": -0.38}
{"compound": "CC(C)COC(N)=O", "endpoint-result": 0.04}
{"compound": "CC(C)(C)OC(N)=O", "endpoint-result": 0}

## Input # log%Abs lookup, item CCCCCCCOC(N)=O
## Output -0.28

## Input # log%Abs lookup, item CCC(C)(C)OC(N)=O
## Output 0.04

## Input # log%Abs lookup, item CCCC(C)(C)OC(N)=O
## Output -0.21

## Input # log%Abs lookup, item CCCOC(N)=O
## Output -0.04

## Input # log%Abs lookup, item CCOC(N)=O
## Output -0.22

====

Tested on: Mus musculus
Experiment: Induction of anesthetic activity in mouse
Type: functional
quantity-kind: -log(1/AD50)
Note: the reply should be a number with no unit written.

{"molecule": "CCC1(C(C)C(C)(C)C)C(=O)NC(=O)NC1=O (configuration not stated)", "-log(1/AD50)": 3.15}
{"molecule": "CCCCCC1(CC(C)(C)C)C(=O)NC(=O)NC1=O", "-log(1/AD50)": 3.32}
{"molecule": "CCCCC1(CC(C)(C)C)C(=O)NC(=O)NC1=O", "-log(1/AD50)": 3.33}
{"molecule": "CC(C)(C)CC1(C)C(=O)NC(=O)NC1=O", "-log(1/AD50)": 2.12}
{"molecule": "CC(C(C)(C)C)C1(C)C(=O)NC(=O)NC1=O (configuration not stated)", "-log(1/AD50)": 2.64}

## Input Query for Mus musculus: what -log(1/AD50) does the record show for CC(C)CCC1(CC(C)(C)C)C(=O)NC(=O)NC1=O ?
## Output 3.26

## Input Query for Mus musculus: what -log(1/AD50) does the record show for C=CCC1(C(C)C(C)(C)C)C(=O)NC(=O)NC1=O (configuration not stated) ?
## Output 3.39

## Input Query for Mus musculus: what -log(1/AD50) does the record show for CCCCC1(C(C)C(C)(C)C)C(=O)NC(=O)NC1=O (configuration not stated) ?
## Output 3.36

====

System: Staphylococcus aureus
Assay: Antimicrobial activity against Staphylococcus aureus
Format: functional
Each entry below carries its reported -log(1/MIC).
Note: the reply should be a number with no unit written.

Consider the worked cases shown below.
{"compound": "CCCCCCCCCCCCCC[N+](C)(C)Cc1ccccc1 [MIRISTALKONIUM ION]", "-log(1/MIC)": 5.82}
{"compound": "CCCCCCCCCCCCC[N+](C)(C)Cc1ccccc1 [BENZALKONIUM]", "-log(1/MIC)": 5.8}
{"compound": "CCCCCCCCCCCCCCCCC[N+](C)(C)Cc1ccccc1", "-log(1/MIC)": 5.18}
{"compound": "CCCCCCCCCCCCCCCCCCC[N+](C)(C)Cc1ccccc1", "-log(1/MIC)": 4.91}
{"compound": "CCCCCCCC[N+](C)(C)Cc1ccccc1", "-log(1/MIC)": 3.69}

Now, please, on to the next compound.
## Input # -log(1/MIC) lookup, item CCCCCCCCCCCCCCCC[N+](C)(C)Cc1ccccc1 [CETALKONIUM]
## Output 5.56

====

Assay: Toxicity in sheep RBC assessed as hemolysis
Assay type: cell-based, Ovis aries
Conditions: erythrocyte
Under this convention, yes (1) denotes -log(1/HC50) strictly below 3 and no (0) denotes -log(1/HC50) at or above 3.

Example entries and their recorded answers appear below.
{"sample-smiles": "CCCCCCCCCCCC[N+](C)(C)Cc1ccccc1", "category-label": "no (0)"}
{"sample-smiles": "CCCCCCCCCCCCCCCCCC[N+](C)(C)Cc1ccccc1", "category-label": "no (0)"}
{"sample-smiles": "CCCCCCCCCCCCCC[N+](C)(C)Cc1ccccc1", "category-label": "no (0)"}
{"sample-smiles": "CCCCCCCCCCCCCCCC[N+](C)(C)Cc1ccccc1", "category-label": "no (0)"}

Now look at this entry.
## Input Here's an entry: CCCCCCCC[N+](C)(C)Cc1ccccc1 . Is its -log(1/HC50) below 3?
## Output yes (1)

====

Assay: Drug absorption in intestine (unknown origin) assessed as mucosal loss
Type: ADME, tissue-based
quantity-kind: log%Abs
Note: the reply should be a number with no unit written.

Consider the worked cases shown below.
{"molecule": "CC(C)(C)OC(N)=O", "log%Abs": 0.73}
{"molecule": "CCCCCCCCOC(N)=O", "log%Abs": -0.19}
{"molecule": "CCCOC(N)=O", "log%Abs": 0.78}
{"molecule": "CC(C)COC(N)=O", "log%Abs": 0.83}
{"molecule": "CCCCCCCOC(N)=O", "log%Abs": 0.08}
{"molecule": "CCCC(C)(C)OC(N)=O", "log%Abs": 0.26}

## Input # log%Abs lookup, item CCOC(N)=O [URETHANE]
## Output 0.6

## Input # log%Abs lookup, item CCCCOC(N)=O
## Output 0.9

## Input # log%Abs lookup, item COC(N)=O [METHYL CARBAMATE]
## Output 0.52

## Input # log%Abs lookup, item CCCCCCOC(N)=O
## Output 0.5

====

Assay: Drug absorption in intestine (unknown origin) assessed as tissue-bound transfer
Assay type: ADME, tissue-based
quantity-kind: log%Abs
Note: the reply should be a number with no unit written.

Consider the worked cases shown below.
{"compound": "CCCCOC(N)=O", "quantity-kind": "log%Abs", "endpoint-result": 0.1}
{"compound": "CCCCCCCCOC(N)=O", "quantity-kind": "log%Abs", "endpoint-result": -0.57}
{"compound": "NC(=O)OCc1ccccc1 [BENZYL CARBAMATE]", "quantity-kind": "log%Abs", "endpoint-result": 0.01}

Now, please, on to the next compound.
## Input # log%Abs lookup, item CCCCCOC(N)=O
## Output 0.02

====

Test system: Staphylococcus aureus
Experiment: Antimicrobial activity against Staphylococcus aureus
Type: functional
Just so you know, the groups by -log(1/MIC) go like this: bucket 1: < 4; bucket 2: ≥ 4 and < 5; bucket 3: ≥ 5

Example entries and their recorded answers appear below.
{"sample-smiles": "CCCCCCCCCCCCCCCCCC[N+](C)(C)Cc1ccccc1", "category-label": "bucket 3"}
{"sample-smiles": "CCCCCCCCCCCC[N+](C)(C)Cc1ccccc1", "category-label": "bucket 3"}
{"sample-smiles": "CCCCCCCCCC[N+](C)(C)Cc1ccc(Cl)cc1", "category-label": "bucket 1"}

## Input # bin lookup: classify CCCCCCCCCCCCCCCC[N+](C)(C)Cc1ccc2c(c1)OCO2 by its -log(1/MIC)
## Output bucket 2

## Input # bin lookup: classify CCCCCCCCCC[N+](C)(C)Cc1ccccc1 by its -log(1/MIC)
## Output bucket 2

## Input # bin lookup: classify CCCCCCCCCCCCCCC[N+](C)(C)Cc1ccccc1 by its -log(1/MIC)
## Output bucket 3

## Input # bin lookup: classify CCCCCCCCCCCCCCCCCC[N+](C)(C)Cc1ccc(Cl)cc1Cl by its -log(1/MIC)
## Output bucket 1

## Input # bin lookup: classify CCCCCCCC[N+](C)(C)Cc1ccc(Cl)cc1 by its -log(1/MIC)
## Output bucket 1

====

Tested on: Mycobacterium tuberculosis
Assay: Antimicrobial activity against Mycobacterium tuberculosis
Type: functional
quantity-kind: -log(1/MIC)

Consider the worked cases shown below.
{"sample-smiles": "CCCCCCCCCCOc1ncccc1N", "-log(1/MIC)": 3.19}
{"sample-smiles": "CCCCCCOc1ccc(N)cc1", "-log(1/MIC)": 5.8}
{"sample-smiles": "CCCCCCOc1ccncc1N", "-log(1/MIC)": 5.8}
{"sample-smiles": "COc1ccc(N)cc1", "-log(1/MIC)": 3.39}
{"sample-smiles": "CCCCOc1ccc(N)c2ccccc12", "-log(1/MIC)": 4.03}
{"sample-smiles": "CCCCOc1ccncc1N", "-log(1/MIC)": 5.73}
{"sample-smiles": "CCOc1ncccc1N", "-log(1/MIC)": 3.54}
{"sample-smiles": "CCCCCCCCOc1ccc(N)cc1", "-log(1/MIC)": 3.44}
{"sample-smiles": "COc1ncccc1N", "-log(1/MIC)": 2.59}
{"sample-smiles": "CC(C)COc1ncccc1N", "-log(1/MIC)": 4.52}

## Input # -log(1/MIC) lookup, item CCCCOc1ccc(N)cn1
## Output 5.13

## Input # -log(1/MIC) lookup, item CCCOc1ncccc1N
## Output 4.79

## Input # -log(1/MIC) lookup, item CCCCCCCCOc1ncccc1N
## Output 3.75
